So I've got a bunch of compounds here, and I need their EC50 values.
SYSTEM_UNDER_TEST: UniProt:Q9QUQ5
Sequence (Q9QUQ5 whole entry): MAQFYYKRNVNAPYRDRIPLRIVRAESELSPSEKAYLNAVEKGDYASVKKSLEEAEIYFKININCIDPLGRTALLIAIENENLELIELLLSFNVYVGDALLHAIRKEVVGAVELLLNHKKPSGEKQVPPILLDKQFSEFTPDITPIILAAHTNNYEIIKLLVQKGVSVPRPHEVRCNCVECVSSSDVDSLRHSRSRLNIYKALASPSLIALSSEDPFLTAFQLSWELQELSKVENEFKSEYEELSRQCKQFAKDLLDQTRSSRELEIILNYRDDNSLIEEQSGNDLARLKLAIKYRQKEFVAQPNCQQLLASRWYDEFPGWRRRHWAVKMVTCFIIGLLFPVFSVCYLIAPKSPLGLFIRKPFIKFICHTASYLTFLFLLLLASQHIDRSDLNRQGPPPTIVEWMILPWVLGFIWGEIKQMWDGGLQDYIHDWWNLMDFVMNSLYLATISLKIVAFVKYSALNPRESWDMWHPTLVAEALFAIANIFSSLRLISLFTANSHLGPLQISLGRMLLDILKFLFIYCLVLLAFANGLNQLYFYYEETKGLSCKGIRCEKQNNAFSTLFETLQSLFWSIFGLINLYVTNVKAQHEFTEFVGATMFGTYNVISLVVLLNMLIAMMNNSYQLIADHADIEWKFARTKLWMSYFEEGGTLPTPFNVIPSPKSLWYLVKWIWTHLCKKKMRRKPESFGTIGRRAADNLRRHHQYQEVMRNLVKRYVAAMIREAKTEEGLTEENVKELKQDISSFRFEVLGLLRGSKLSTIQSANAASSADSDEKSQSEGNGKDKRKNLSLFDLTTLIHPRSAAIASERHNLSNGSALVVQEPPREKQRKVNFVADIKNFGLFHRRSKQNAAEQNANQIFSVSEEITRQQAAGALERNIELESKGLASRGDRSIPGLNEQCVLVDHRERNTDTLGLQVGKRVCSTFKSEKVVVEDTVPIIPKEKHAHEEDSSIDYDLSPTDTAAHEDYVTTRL
ASSAY_SUMMARY: mouse TRPC4 channel activators, dose response, cell-based, HEK293 TRPC4/mu-opioid, Fluo-4 calcium (AID 434937)
Assay type: functional
The source made the active and inactive calls. No rule for the calls is given here.

Input line: Look up EC50: CC1CCCCN1S(=O)(=O)c1ccc(C(=O)N(CCCN(C)C)c2nc3ccc(Br)cc3s2)cc1 (stereo not drawn)
Output line: 4.73 µM (active)

Input line: Look up EC50: COc1cccc(C(=O)NC2CCCN(C3Cc4ccccc4C3)C2)c1OC (stereo not drawn)
Output line: 5.31 µM (active)

Input line: Look up EC50: CCCCN(CC)CCNC(=O)c1cc2c(-c3ccc(Cl)cc3)nn(C)c2s1
Output line: 0.211 µM (active)

Input line: Look up EC50: OCCN1CCN(Cc2cc(Br)cc(Br)c2O)CC1
Output line: 0.0293 µM (active)

Input line: Look up EC50: COc1ccc(C(=O)NC(=S)NNC(=O)CCc2ccccc2)cc1
Output line: 5.96 µM (active)

Input line: Look up EC50: Cc1ccn2cc(CCNC(=O)C3CC=CCC3C(=O)O)nc2c1 (stereo not drawn)
Output line: 3.76 µM (active)

Input line: Look up EC50: COC(=O)C1=NN(C(=O)c2ccc(C)cc2)C(O)(c2ccc(Cl)cc2)C1 (stereo not drawn)
Output line: 6.68 µM (active)

Input line: Look up EC50: COc1ccccc1C(=O)NNC(=S)NC(=O)c1sc2ccccc2c1Cl
Output line: 5.31 µM (active)
